system: Vero E6; assay: drug sensitivity score (DSS) for viability; higher = more toxic; extreme values may be limits of the assay; details: 72 h
Reported drug sensitivity score values are given for each entry in this list.

{"columns": ["Molecule", "drug sensitivity score"],
 "data": [
  ["CCCc1ncc(C[n+]2ccccc2C)c(N)n1", 0],
  ["COC(=O)C1=C(C)NC(C)=C(C(=O)OCCCN2CCC(c3ccccc3)(c3ccccc3)CC2)[C@@H]1c1cccc([N+](=O)[O-])c1", 4.2],
  ["CC(=O)NCC(=O)N[C@H](CCC(=O)O)C(=O)O", 0],
  ["COc1cc(Nc2nc3ccccc3nc2NS(=O)(=O)c2ccc(NC(=O)c3ccc(C)c(OC)c3)cc2)cc(OC)c1", 0],
  ["C=C[C@H]1CN2CC[C@H]1C[C@H]2[C@H](O)c1ccnc2ccccc12", 0]
]}
